- target-or-test-system: DNA-PK (Homo sapiens (Human), UniProt P78527)
- protocol: DNA-PK Enzyme-Linked Immunosorbent Assay (phosphorylation of GST-p53 (1-101) peptide)
- Type: biochemical
- reported-conditions: ELISA, ATP 20 μM
Where a name gives a salt, the structure may show the parent alone.
attribute-measured: IC50

Task: Notebook entry, DNA-PK (Homo sapiens (Human), UniProt P78527) assay: IC50 of CN1C(=O)C2(CCC2)c2c1cnc1ccc(-c3cnc(N4CC(N(C)C)C4)c(NS(=O)(=O)N(C)C)c3)cc21 = ?
Output: 0.5 to 1 nM

Task: Notebook entry, DNA-PK (Homo sapiens (Human), UniProt P78527) assay: IC50 of CN(C)CCCOc1ncc(-c2ccc3ncc4c(c3c2)C2(CC2)C(=O)N4C)cc1NS(=O)(=O)c1ccsc1 = ?
Output: < 0.5 nM

Task: Notebook entry, DNA-PK (Homo sapiens (Human), UniProt P78527) assay: IC50 of CN(C)CCCOc1ncc(-c2ccc3ncc4c(c3c2)C2(CN(c3ccccc3)C2)C(=O)N4C)cc1NS(=O)(=O)c1ccccc1 = ?
Output: 1 to 100 nM

Task: Notebook entry, DNA-PK (Homo sapiens (Human), UniProt P78527) assay: IC50 of CN1C(=O)C2(CC2)c2c1cnc1ccc(-c3ccc4ncccc4c3)cc21 = ?
Output: 1 to 100 nM

Task: Notebook entry, DNA-PK (Homo sapiens (Human), UniProt P78527) assay: IC50 of CN(C)CCCOc1ncc(-c2cc3c4c(cnc3cc2F)N(C)C(=O)C42CCC2)cc1NS(C)(=O)=O [Example 291, hydrochloride] = ?
Output: 1 to 100 nM

Task: Notebook entry, DNA-PK (Homo sapiens (Human), UniProt P78527) assay: IC50 of CN(C)CCCOc1ncc(-c2ccc3ncc4c(c3c2)C2(CCC2)C(=O)N4C)cc1NS(=O)(=O)c1cccc(C(F)(F)F)c1 = ?
Output: 1 to 100 nM

Task: Notebook entry, DNA-PK (Homo sapiens (Human), UniProt P78527) assay: IC50 of CN1C(=O)C2(CCC2)c2c1cnc1ccc(-c3cnc(N4CCC(N5CCCCC5)CC4)c(NS(=O)(=O)c4ccccc4)c3)cc21 [Example 155, hydrochloride] = ?
Output: 0.5 to 1 nM

Task: Notebook entry, DNA-PK (Homo sapiens (Human), UniProt P78527) assay: IC50 of COc1ccc(S(=O)(=O)Nc2cc(-c3ccc4ncc5c(c4c3)C3(CC3)C(=O)N5C)cnc2OCCCN(C)C)cc1 = ?
Output: < 0.5 nM

Task: Notebook entry, DNA-PK (Homo sapiens (Human), UniProt P78527) assay: IC50 of COC1CCN(CCCOc2ncc(-c3ccc4ncc5c(c4c3)C3(CCC3)C(=O)N5C)cc2NS(C)(=O)=O)C1 (stereo not drawn) = ?
Output: 0.5 to 1 nM

###

- target-or-test-system: DNA-PK (Homo sapiens (Human))
- protocol: DNA-PK Enzyme-Linked Immunosorbent Assay (phosphorylation of GST-p53 (1-101) peptide)
- Assay type: biochemical
- reported-conditions: ELISA, ATP 20 μM
Counter-ions that a name gives are not always drawn.
For each record, write down the corresponding IC50.

Task: Look at this molecule and give its reported IC50. CN(C)CCCOc1ncc(-c2ccc3ncc4c(c3c2)C2(CCC2)C(=O)N4C)cc1NS(=O)(=O)c1ccccn1 [Example 148, hydrochloride]
Output: 1 to 100 nM

Task: Look at this molecule and give its reported IC50. CN(C)CCCOc1ncc(-c2ccc3ncc4c(c3c2)C2(CCC2)C(=O)N4C)cc1NS(=O)(=O)C1CCC1 [Example 253]
Output: 1 to 100 nM

Task: Look at this molecule and give its reported IC50. CN(C)CCCOc1ncc(-c2ccc3ncc4c(c3c2)C2(CCC2)C(=O)N4C)cc1NS(=O)(=O)c1cnn(C)c1 [Example 166, hydrochloride]
Output: 1 to 100 nM

###

- target-or-test-system: ATM (Homo sapiens (Human))
- protocol: ATM in Cell Western Assay (pKAP1 in etoposide-treated MCF-7 cells)
- Assay type: cell-based
- reported-conditions: MCF-7 cells, etoposide 100 μM, 1 hr, pKAP1 readout
pIC50: −log10 of the molar value. Structures can show the parent of a compound that is named as a salt.
For each record, write down the corresponding pIC50.

Task: Look at this molecule and give its reported pIC50. CN(C)CCCOc1ncc(-c2ccc3ncc4c(c3c2)C2(CCC2)C(=O)N4C)cc1S(=O)(=O)N(C)C [Example 234]
Output: 7.00 to 9.00

Task: Look at this molecule and give its reported pIC50. CN(C)CCCOc1ncc(-c2ccc3ncc4c(c3c2)C2(CCC2)C(=O)N4C)cc1NS(=O)(=O)c1ccns1 [Example 188, hydrochloride]
Output: 7.00 to 9.00

Task: Look at this molecule and give its reported pIC50. CN1CCCC(COc2ncc(-c3ccc4ncc5c(c4c3)C3(CC3)C(=O)N5C)cc2NS(=O)(=O)C2CC2)C1 (stereo not drawn) [Example 86]
Output: 7.00 to 9.00

Task: Look at this molecule and give its reported pIC50. CCN1C(=O)C2(CC2)c2c1cnc1ccc(-c3cnc(OCCCN(C)C)c(NS(=O)(=O)c4ccccc4)c3)cc21 [Example 42]
Output: 7.00 to 9.00

Task: Look at this molecule and give its reported pIC50. CN1CCN(c2ncc(-c3ccc4ncc5c(c4c3)C3(CCC3)C(=O)N5C)cc2NS(C)(=O)=O)CC1 [Example 229]
Output: 9.00 to 9.30

Task: Look at this molecule and give its reported pIC50. CN(C)CCCOc1ncc(-c2ccc3ncc4c(c3c2)C2(CCCC2)C(=O)N4C)cc1NS(=O)(=O)c1ccccc1 [Example 2]
Output: 7.00 to 9.00

Task: Look at this molecule and give its reported pIC50. COCCN(C)C1CN(c2ncc(-c3cc4c5c(cnc4cc3F)N(C)C(=O)C53CCC3)cc2NS(C)(=O)=O)C1 [Example 314, hydrochloride]
Output: 7.00 to 9.00

Task: Look at this molecule and give its reported pIC50. Cc1ccc(S(=O)(=O)Nc2cc(-c3ccc4ncc5c(c4c3F)C3(CC3)C(=O)N5C)cnc2OCCCN(C)C)cc1 [Example 215]
Output: 9.00 to 9.30

Task: Look at this molecule and give its reported pIC50. CN1C(=O)C2(CCC2)c2c1cnc1ccc(-c3cnc(N4CCC(N5CCCCC5)CC4)c(NS(=O)(=O)c4ccc(F)cc4F)c3)cc21 [Example 206, hydrochloride]
Output: 7.00 to 9.00

###

For each record, write down the corresponding pIC50.
- target-or-test-system: ATM (Homo sapiens (Human), UniProt Q13315)
- Sequence (Q13315 whole entry): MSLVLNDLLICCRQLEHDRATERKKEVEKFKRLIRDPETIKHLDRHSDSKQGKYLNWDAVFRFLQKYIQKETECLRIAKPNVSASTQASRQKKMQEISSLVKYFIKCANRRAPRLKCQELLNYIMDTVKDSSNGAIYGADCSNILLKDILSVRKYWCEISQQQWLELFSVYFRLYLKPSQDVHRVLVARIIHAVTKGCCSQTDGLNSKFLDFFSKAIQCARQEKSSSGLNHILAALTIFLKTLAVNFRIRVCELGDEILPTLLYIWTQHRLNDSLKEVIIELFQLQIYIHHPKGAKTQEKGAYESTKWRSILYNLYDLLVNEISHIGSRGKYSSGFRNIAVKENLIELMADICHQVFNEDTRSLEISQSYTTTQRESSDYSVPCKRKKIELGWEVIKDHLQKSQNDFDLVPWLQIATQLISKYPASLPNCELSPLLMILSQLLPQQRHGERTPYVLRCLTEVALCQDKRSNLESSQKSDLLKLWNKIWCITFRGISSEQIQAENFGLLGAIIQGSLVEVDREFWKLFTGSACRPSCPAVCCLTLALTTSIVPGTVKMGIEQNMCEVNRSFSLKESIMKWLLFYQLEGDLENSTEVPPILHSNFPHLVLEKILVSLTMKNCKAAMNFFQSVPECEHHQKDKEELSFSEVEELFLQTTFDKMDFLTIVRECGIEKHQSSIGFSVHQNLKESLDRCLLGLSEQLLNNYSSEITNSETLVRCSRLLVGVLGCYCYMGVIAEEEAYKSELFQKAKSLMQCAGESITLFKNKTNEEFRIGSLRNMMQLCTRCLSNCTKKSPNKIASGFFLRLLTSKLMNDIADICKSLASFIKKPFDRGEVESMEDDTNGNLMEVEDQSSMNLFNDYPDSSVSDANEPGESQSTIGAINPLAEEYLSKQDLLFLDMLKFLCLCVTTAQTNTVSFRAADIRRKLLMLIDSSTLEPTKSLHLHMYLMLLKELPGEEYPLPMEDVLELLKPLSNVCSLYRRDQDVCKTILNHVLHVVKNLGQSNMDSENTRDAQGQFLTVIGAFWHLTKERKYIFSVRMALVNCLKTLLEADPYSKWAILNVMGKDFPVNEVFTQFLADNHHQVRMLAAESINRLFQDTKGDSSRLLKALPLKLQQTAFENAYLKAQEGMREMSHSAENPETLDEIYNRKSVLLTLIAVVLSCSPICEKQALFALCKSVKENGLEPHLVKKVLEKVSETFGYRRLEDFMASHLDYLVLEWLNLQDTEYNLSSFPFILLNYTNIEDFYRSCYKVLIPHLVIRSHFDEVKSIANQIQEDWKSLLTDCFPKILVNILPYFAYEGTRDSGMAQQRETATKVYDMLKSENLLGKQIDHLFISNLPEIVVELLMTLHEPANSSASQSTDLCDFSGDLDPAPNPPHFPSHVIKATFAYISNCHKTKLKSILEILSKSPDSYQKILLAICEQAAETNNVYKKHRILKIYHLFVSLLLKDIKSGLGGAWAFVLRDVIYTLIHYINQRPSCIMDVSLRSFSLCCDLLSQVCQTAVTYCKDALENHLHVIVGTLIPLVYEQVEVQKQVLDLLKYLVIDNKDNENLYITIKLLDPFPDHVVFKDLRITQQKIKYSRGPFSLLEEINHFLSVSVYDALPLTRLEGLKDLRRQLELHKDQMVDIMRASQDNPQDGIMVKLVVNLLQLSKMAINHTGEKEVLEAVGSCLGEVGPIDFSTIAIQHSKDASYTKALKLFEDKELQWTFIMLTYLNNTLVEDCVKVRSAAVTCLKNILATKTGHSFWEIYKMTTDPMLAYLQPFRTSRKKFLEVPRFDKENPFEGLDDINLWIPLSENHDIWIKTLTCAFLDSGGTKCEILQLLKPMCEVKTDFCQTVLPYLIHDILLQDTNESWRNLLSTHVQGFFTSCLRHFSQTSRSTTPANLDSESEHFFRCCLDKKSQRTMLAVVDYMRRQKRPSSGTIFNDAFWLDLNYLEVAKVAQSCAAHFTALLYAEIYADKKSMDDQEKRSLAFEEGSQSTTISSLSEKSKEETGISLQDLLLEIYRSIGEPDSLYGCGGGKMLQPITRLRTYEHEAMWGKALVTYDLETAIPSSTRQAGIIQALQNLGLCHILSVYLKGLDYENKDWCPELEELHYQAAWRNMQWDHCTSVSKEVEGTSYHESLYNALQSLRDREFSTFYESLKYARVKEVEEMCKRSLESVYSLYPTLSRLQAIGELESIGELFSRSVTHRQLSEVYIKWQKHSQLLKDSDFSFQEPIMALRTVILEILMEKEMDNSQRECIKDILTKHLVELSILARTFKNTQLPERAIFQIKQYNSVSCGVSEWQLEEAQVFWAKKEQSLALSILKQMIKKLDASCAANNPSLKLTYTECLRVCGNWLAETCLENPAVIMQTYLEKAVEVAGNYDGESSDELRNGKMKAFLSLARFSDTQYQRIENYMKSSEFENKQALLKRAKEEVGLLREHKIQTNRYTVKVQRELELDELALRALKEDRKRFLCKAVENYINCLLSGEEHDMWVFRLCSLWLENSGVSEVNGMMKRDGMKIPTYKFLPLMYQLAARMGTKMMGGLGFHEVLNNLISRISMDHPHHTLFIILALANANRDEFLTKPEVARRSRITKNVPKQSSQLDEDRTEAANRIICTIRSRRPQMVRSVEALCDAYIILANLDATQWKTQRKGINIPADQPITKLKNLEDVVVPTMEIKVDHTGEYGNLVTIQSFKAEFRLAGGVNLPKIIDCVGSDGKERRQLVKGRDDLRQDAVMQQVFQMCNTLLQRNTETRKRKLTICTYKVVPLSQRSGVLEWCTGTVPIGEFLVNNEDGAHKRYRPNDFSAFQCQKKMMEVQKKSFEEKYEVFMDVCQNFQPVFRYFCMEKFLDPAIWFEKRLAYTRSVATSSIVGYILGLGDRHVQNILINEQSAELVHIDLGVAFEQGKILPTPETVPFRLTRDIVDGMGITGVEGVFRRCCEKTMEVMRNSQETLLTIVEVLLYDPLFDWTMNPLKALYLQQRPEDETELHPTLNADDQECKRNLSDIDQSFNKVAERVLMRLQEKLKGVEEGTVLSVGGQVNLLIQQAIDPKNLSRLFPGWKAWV
- protocol: ATM in Cell Western Assay (pKAP1 in etoposide-treated MCF-7 cells)
- Type: cell-based
- reported-conditions: pKAP1 in etoposide-treated MCF-7 cells
pIC50: −log10 of the molar value. Structures can show the parent of a compound that is named as a salt.

Task: Look at this compound and give its reported pIC50. CCc1ccc(N2CC3(C2)C(=O)N(C)c2cnc4cc(F)c(-c5cnc(OCCNC(C)C)c(NS(C)(=O)=O)c5)cc4c23)cc1
Output: 7.00 to 9.00

Task: Look at this compound and give its reported pIC50. COc1ccc([C@H]2C[C@]3(C2)C(=O)N(C)c2cnc4cc(F)c(-c5cnc(OCCNC(C)C)c(NS(C)(=O)=O)c5)cc4c23)cc1 [Example 420, hydrochloride]
Output: 7.00 to 9.00

Task: Look at this compound and give its reported pIC50. CC(C)NCCOc1ncc(-c2cc3c4c(cnc3cc2F)N(C)C(=O)C42CN(S(=O)(=O)c3ccccc3)C2)cc1NS(C)(=O)=O
Output: < 7.00

Task: Look at this compound and give its reported pIC50. CC(C)NCCOc1ncc(-c2cc3c4c(cnc3cc2F)N(C)C(=O)C42CN(c3nnnn3C)C2)cc1NS(C)(=O)=O
Output: < 7.00

Task: Look at this compound and give its reported pIC50. CC(C)NCCOc1ncc(-c2cc3c4c(cnc3cc2F)N(C)C(=O)C42CN(CCO)C2)cc1NS(C)(=O)=O
Output: 7.00 to 9.00

Task: Look at this compound and give its reported pIC50. CC(C)NCCOc1ncc(-c2cc3c(cc2F)ncc2c3[C@]3(C[C@@H](C(C)(C)O)C3)C(=O)N2C)cc1NS(C)(=O)=O
Output: 7.00 to 9.00

Task: Look at this compound and give its reported pIC50. CC(C)NCCOc1ncc(-c2cc3c(cc2F)ncc2c3[C@]3(C[C@H](c4ccncc4)C3)C(=O)N2C)cc1NS(C)(=O)=O
Output: 7.00 to 9.00

Task: Look at this compound and give its reported pIC50. CCC(CC)N1CC2(C1)C(=O)N(C)c1cnc3cc(F)c(-c4cnc(OCCNC(C)C)c(NS(C)(=O)=O)c4)cc3c12
Output: 7.00 to 9.00

Task: Look at this compound and give its reported pIC50. CC(C)NCCOc1ncc(-c2cc3c(cc2F)ncc2c3[C@]3(C[C@H](n4cccn4)C3)C(=O)N2C)cc1NS(C)(=O)=O
Output: < 7.00
